All values here come from PubChem BioAssay (NCATS).

Assay: qHTS of pediatric cancer cell lines to identify multiple opportunities for drug repurposing: Primary screen for Saos-2 cells (AID 1347097); further: nearly all actives have a fitted effect of over 40% in size
Details: Saos-2 viability, CellTiter-Glo ATP luminescence, 48 h; series mostly up to 46 µM
Records with an inconclusive call do not appear. Activity calls are given as the source filed them. The call rests on the fitted dose curve; in most records, active means well fitted cell-killing curve with a large enough effect; inconclusive means small, poorly fitted or top-dose-only effect; inactive means no such curve, though single readings can be large or run the other way.
Outcomes you can answer with include only these: y (active), n (inactive)

Record excerpt, results attached:
Molecule | Group Label
CC(=O)OCCN1C(=O)c2c(C)nc3ccc(S(=O)(=O)N4CCOCC4)cc3c2C1=O | n
NCC(=O)Nc1ccc(-n2nc(C(F)(F)F)cc2-c2ccc3c(ccc4ccccc43)c2)cc1 | y
O=c1[nH]c(=O)n(C2CCCO2)cc1F (stereo unspecified) | n
O=C(Nc1cc(C(F)(F)F)cc(C(F)(F)F)c1)c1cc(Cl)ccc1O | y
Cc1ccc(S(=O)(=O)Nc2cc(Cl)ccc2C(=O)Nc2nc(-c3ccccc3)cs2)cc1 | y

Turning now to a further record.
What classification did Clc1cccc(-c2nnnn2Cc2cccnc2)c1Cl end up with in this test?
n

---

Assay: Quantitative High-Throughput drug screen in 47 multiple myeloma cell lines against the NCATS MIPE library collection: JIM1_ECACC cell viability assay (AID 1918964)
Settings: JIM1 myeloma viability, CellTiter-Glo ATP luminescence, 48 h; series mostly up to 45.8 µM
Results filed as inconclusive are left out. Active and inactive are the calls of the source. The call rests on the fitted dose curve; in most records, active means well fitted cell-killing curve with a large enough effect; inconclusive means small, poorly fitted or top-dose-only effect, or effect the other way; inactive means no such curve, though single readings can be large or run the other way.
Outcomes you can answer with include only these: active, inactive

Record excerpt, results attached:
Molecule | Group Label
CC1COC2(CCN(c3nc(=O)c4cc(C(F)(F)F)cc([N+](=O)[O-])c4s3)CC2)O1 (centres undefined) | inactive
CC(=O)OCCN1C(=O)c2c(C)nc3ccc(S(=O)(=O)N4CCOCC4)cc3c2C1=O | inactive
NC(=O)Nc1cc(-c2cccc(F)c2)sc1C(=O)N[C@H]1CCCNC1 | active

Turning now to a further record.
What classification did COCCOc1ccc2c(c1)ncn2-c1ccc2cccc(N3CCC(N)CC3)c2n1 end up with in this test?
active

---

Test: Quantitative High-Throughput drug screen in 47 multiple myeloma cell lines against the NCATS MIPE library collection: H1112_PLB cell viability assay (AID 1918967; further: nearly all actives have a fitted effect of over 30% in size)
Conditions: H1112 myeloma cells viability, ATP luminescence, 48 h; series mostly up to 45.8 µM
Inconclusive results are not listed. Activity calls are given as the source filed them. Calls follow the shape of the dose curve; as a rule, active = well fitted cell-killing curve with a large enough effect; inconclusive = small, poorly fitted or top-dose-only effect, or effect the other way; inactive = no such curve, though single readings can be large or run the other way.
Outcomes you can answer with include only these: yes (1) (active), no (0) (inactive)

Record excerpt, results attached:
Molecule | Group Label
COc1cc(=C2C=c3ccccc3=N2)[nH]c1=Cc1[nH]c(C)cc1C | yes (1)
CC[C@@]1(O)C(=O)OCc2c1cc1n(c2=O)Cc2cc3cc(O)ccc3nc2-1 | yes (1)
NC(=O)c1cccc2cn(-c3ccc([C@@H]4CCCNC4)cc3)nc12 | yes (1)

What classification did COC(=O)C[C@](O)(CCCC(C)(C)O)C(=O)O[C@@H]1C(OC)=C[C@]23CCCN2CCc2cc4c(cc2[C@H]13)OCO4 end up with in this test?
no (0)

Let us now turn to CC(C)(O)c1cc2nc(-c3cnc(N)nc3)nc(N3CCOCC3)c2s1
yes (1)

Let us now turn to COc1cc2ncn(-c3cc(OCc4ccccc4C(F)(F)F)c(C(N)=O)s3)c2cc1OC
yes (1)

Let us now turn to C[C@@H](Oc1cc(-c2cnn(C3CCNCC3)c2)cnc1N)c1c(Cl)ccc(F)c1Cl
yes (1)

Let us now turn to N#CCNC(=O)c1ccc(-c2ccnc(Nc3ccc(N4CCOCC4)cc3)n2)cc1
yes (1)

Let us now turn to CN1CC[C@@H](c2c(O)cc(O)c3c(=O)cc(-c4ccccc4Cl)oc23)[C@@H](O)C1
yes (1)

---

Experiment: qHTS of pediatric cancer cell lines to identify multiple opportunities for drug repurposing: Primary screen for NB1643 cells (AID 1347099); further: nearly all actives have a fitted effect of over 50% in size; further: potency means the concentration at half of the fitted maximal effect
Conditions: NB1643 neuroblastoma viability, CellTiter-Glo luminescence, 48 h; series mostly up to 46 µM
Records with an inconclusive call do not appear. Active and inactive are the calls of the source. Calls follow the shape of the dose curve; as a rule, active = well fitted cell-killing curve with a large enough effect; inconclusive = small, poorly fitted or top-dose-only effect; inactive = no such curve, though single readings can be large or run the other way.
Reported Property: Potency

Some compounds with recorded Potency:
Compound | Potency
COC(=O)[C@]12CCC(C)(C)C[C@@H]1[C@@H]1C(=O)C=C3[C@@]4(C)C=C(C#N)C(=O)C(C)(C)[C@@H]4CC[C@@]3(C)[C@]1(C)CC2 | 0.662 µM (active)
Cc1ccc(C(=O)Nc2ccc(CN3CCN(C)CC3)c(C(F)(F)F)c2)cc1C#Cc1cnc2cccnn12 | 23.5 µM (active)
C=C1C(=CC=C2CCCC3(C)[C@@H]([C@H](C)C=CC=CC(O)(CC)CC)CC[C@@H]23)C[C@@H](O)C[C@@H]1O (stereo not given in full) | 14.8 µM (active)
CCN(CC)CCCCNc1ncc2cc(-c3cc(OC)cc(OC)c3)c(NC(=O)NC(C)(C)C)nc2n1 | inactive

Recorded Potency for O=c1[nH]nc(Sc2ncc([N+](=O)[O-])s2)n1-c1ccc2c(c1)OCCO2 , please?
4.69 µM (active)

Let us now turn to O=C(CCCCCCC(=O)Nc1ccc([C@H]2O[C@@H](CSc3nc(-c4ccccc4)c(-c4ccccc4)o3)C[C@@H](c3ccc(CO)cc3)O2)cc1)NO
7.43 µM (active)

Let us now turn to CC1=C(CO)C(=O)O[C@@H]([C@@H](C)[C@H]2CC[C@H]3[C@@H]4C[C@H]5O[C@]56[C@@H](O)C=CC(=O)[C@]6(C)[C@@H]4CC[C@]23C)C1
0.132 µM (active)

Let us now turn to CCC[C@H](NC(=O)C(C#N)=Cc1cccc(Br)n1)c1ccccc1
7.43 µM (active)

Let us now turn to CNC(=O)c1ccc(N2C(=S)N(c3cnc(C#N)c(C(F)(F)F)c3)C(=O)C23CCC3)cc1F
3.32 µM (active)

Let us now turn to CN1CCN(c2ccc3nc(-c4c(N)c5c(F)cccc5[nH]c4=O)[nH]c3c2)CC1
16.6 µM (active)

Let us now turn to CC(C)(O)c1cc2nc(-c3cnc(N)nc3)nc(N3CCOCC3)c2s1
0.187 µM (active)

Let us now turn to Cc1cn2c(-c3cn[nH]c3)cnc2c(Nc2ccc(C(=O)N3CCNCC3)cc2F)n1
18.7 µM (active)

Let us now turn to Cc1ccc(C(=O)Nc2cccc(C(F)(F)F)c2)cc1-c1ccc2nc(NCCN3CCOCC3)ncc2c1
5.26 µM (active)

---

Experiment: qHTS of pediatric cancer cell lines to identify multiple opportunities for drug repurposing: Confirmatory screen for LAN-5 cells (AID 1347113); further: nearly all actives have a fitted effect of over 65% in size; further: potency means the concentration at half of the fitted maximal effect
Settings: LAN-5 neuroblastoma cell viability; series mostly up to 45.9 µM
Inconclusive results are not listed. Calls of active or inactive are those of the source. Calls come from the whole dose curve; as a rule, active = well fitted cell-killing curve with a large enough effect; inconclusive = small, poorly fitted or top-dose-only effect, or effect the other way; inactive = no such curve, though single readings can be large or run the other way.
Reported Property: Potency

Compound | Reported Property | Reading
C=CC(=O)Nc1cccc(Oc2nc(Nc3ccc(N4CCN(C)CC4)cc3)ncc2Cl)c1 | Potency | 6570 nM (active)
CC=CC1=C(C(=O)O)N2C(=O)[C@H](NC(=O)[C@H](N)c3ccc(O)cc3)[C@@H]2SC1 | Potency | inactive
CCn1cc(-c2ccnc3[nH]c(-c4cccc(CN(C)C)c4)cc23)c(-c2ccc(NC(=O)N(C)C)cc2)n1 | Potency | 6570 nM (active)
Cc1nc(N)ncc1-c1nc(N2CCOCC2)c2sc(C(C)(C)O)cc2n1 | Potency | 1470 nM (active)
O=C(Cc1ccc(-c2ccc(OCCN3CCOCC3)cc2)cn1)NCc1ccccc1 | Potency | 147 nM (active)
CNC(=O)CN1CCC(Oc2cc3c(Nc4cccc(Cl)c4F)ncnc3cc2OC)CC1 | Potency | 1170 nM (active)

Now look at this entry.
Recorded Potency for CC=C1NC(=O)[C@H]2CSSCCC=C[C@H](CC(=O)N[C@H](C(C)C)C(=O)N2)OC(=O)[C@H](C(C)C)NC1=O , please?
inactive

---

Overview of reported Z-AUC across a group of compounds:
Test: qHTS drug screen for cell cycle checkpoint inhibitors in PARPi-resistant BRCA-mutant ovarian cancer cell lines. (AID 1963452)
Conditions: PEO1/OlaR viability, CellTiter-Glo luminescence, 96 h; measured here: PEO4 Z-AUC; stronger effect = lower value
Response field accepts a number only; no unit should be typed.

Some compounds with recorded Z-AUC:
Compound | Z-AUC
CC(C)(C)c1cc(C(C)(C)C)c(NC(=O)c2c[nH]c3ccccc3c2=O)cc1O | 0.966
Cc1ccc(-c2ncn(-c3ccc(Nc4nccc(-c5cccc(N6CCOCC6)c5)n4)cc3)n2)cn1 | -1.65

Recorded Z-AUC for OCc1ccc(-c2ccc(-c3ccc(CO)s3)o2)s1 , please?
1.79

Let us now turn to Nc1nccc(Oc2ccc(NC(=O)c3c[nH]cc(-c4ccc(F)cc4)c3=O)cc2F)c1Cl
-1.14

Let us now turn to O=c1[nH]nc(Sc2ncc([N+](=O)[O-])s2)n1-c1ccc2c(c1)OCCO2
-0.291

Let us now turn to CC[C@H](CO)Nc1nc(NCc2ccccc2)c2ncn(C(C)C)c2n1
1.29

Let us now turn to Cc1cc(Nc2cc(NC(=O)c3c(Cl)cccc3Cl)ccn2)nc(N)n1
-0.959

Let us now turn to COc1cc(C)c(Sc2cnc(NC(=O)c3ccc(CNC(C)C(C)C)cc3)s2)cc1C(=O)N1CCN(C(C)=O)CC1 (configuration not stated)
-0.689

Let us now turn to Cc1nc2ccc(CN(C)c3ccc(C(=O)N[C@@H](CCC(=O)O)C(=O)O)s3)cc2c(=O)[nH]1
-0.15

Let us now turn to C[C@@]12O[C@@H](C[C@]1(O)CO)n1c3ccccc3c3c4c(c5c6ccccc6n2c5c31)CNC4=O
-0.928

Let us now turn to COC(=O)C1=C(C)NC(C)=C(C(=O)OCCN2CCN(C(c3ccccc3)c3ccccc3)CC2)C1c1cccc([N+](=O)[O-])c1 (configuration not stated)
0.196

Let us now turn to COc1ccc(CC2c3cc(OC)c(OC)cc3CC[N+]2(C)CCC(=O)OCCCCCOC(=O)CC[N+]2(C)CCc3cc(OC)c(OC)cc3C2Cc2ccc(OC)c(OC)c2)cc1OC (configuration not stated)
0.213
